Every entry's value here was drawn from patent US10669274B2.

pIC50: −log10 of the molar value.
// each record: one item and its pIC50 for PARP1 (Homo sapiens)
readout name: pIC50

record_smiles=O=c1[nH]nc2c3c(cccc13)N=C1C=CC(CN3CCCC3)=CN12 readout_name=pIC50 value=6.99
record_smiles=CN1CCC(N(C)CC2=CN3C(=Nc4cccc5c(=O)[nH]nc3c45)C=C2)CC1 readout_name=pIC50 value=6.93
record_smiles=O=c1[nH]nc2c3c(cccc13)N=C1C=CC(CN3CCCCC3)=CN12 readout_name=pIC50 value=6.53
record_smiles=CCN(CC)CC1=CN2C(=Nc3cccc4c(=O)[nH]nc2c34)C=C1 readout_name=pIC50 value=6.86
record_smiles=CN(CC1=CN2C(=Nc3cccc4c(=O)[nH]nc2c34)C=C1)C1CCN(c2ccccc2)CC1 readout_name=pIC50 value=6.79
record_smiles=O=c1[nH]nc2c3c(cccc13)N=C1C=CC(Cn3ccnc3)=CN12 readout_name=pIC50 value=6.78
record_smiles=O=c1[nH]nc2c3c(cccc13)N=C1C=CC(CNCC(F)(F)F)=CN12 readout_name=pIC50 value=6.46
record_smiles=O=c1[nH]nc2c3c(cccc13)N=C1C=CC(CN3CCOCC3)=CN12 readout_name=pIC50 value=6.71
